# systemUnderTest: 5-HT2A receptors (Rattus norvegicus)
# Sequence (P14842 whole entry): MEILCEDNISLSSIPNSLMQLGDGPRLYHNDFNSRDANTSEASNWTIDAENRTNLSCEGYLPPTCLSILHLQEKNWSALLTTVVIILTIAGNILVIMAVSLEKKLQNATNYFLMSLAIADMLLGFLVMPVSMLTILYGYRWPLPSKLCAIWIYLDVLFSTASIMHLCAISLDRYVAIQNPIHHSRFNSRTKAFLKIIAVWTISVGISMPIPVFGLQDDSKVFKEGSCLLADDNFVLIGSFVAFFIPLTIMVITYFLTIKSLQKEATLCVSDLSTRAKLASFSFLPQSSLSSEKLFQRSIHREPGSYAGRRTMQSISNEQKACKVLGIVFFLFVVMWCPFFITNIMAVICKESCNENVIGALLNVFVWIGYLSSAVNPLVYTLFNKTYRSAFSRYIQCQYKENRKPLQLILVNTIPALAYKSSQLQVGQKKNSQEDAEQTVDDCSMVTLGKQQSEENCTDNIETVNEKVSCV
# assay: in-vitro affinity to 5-HT2A receptors, displacement of [3H]ketanserine (Example A1)
# Type: binding
# conditionDescription: target not given; description names affinity to 5-HT2A receptors; read-out: IC50
pIC50: −log10 of the molar value.
Outcome label depends on pIC50 relative to 7: at/above gives rule met, below gives rule not met.

Please review the entries below; each comes with its answer.
> print(dat)
                                   compound  assignedlabel
1  NCc1cnn(-c2ccc(-c3ccccc3)cc2)c1-c1ccccc1 [(165)]       rule met
2  CN1CCN(Cc2cnn(-c3ccc(-c4ccc(F)cc4)cc3)c2-c2ccccc2F)CC1 [(64)]       rule met
3  Fc1ccccc1-c1c(CN2CC=CCC2)cnn1-c1ccc(-c2ccccc2)cc1 [(38)]   rule not met
4  CN1CCN(Cc2cnn(-c3ccc(-c4ccsc4)cc3)c2-c2ccccc2F)CC1 [(66)]       rule met
5  CCOC(=O)N1CCC(N(C)Cc2cnn(-c3ccc(-c4ccccc4)cc3)c2-c2ccccc2F)CC1 [(110)]   rule not met
6  OCCN1CCN(Cc2cnn(-c3ccc(-c4ccccc4)cc3)c2-c2ccccc2F)CC1 [(79)]   rule not met
7  OCCNCc1cnn(-c2ccc(-c3ccccc3)cc2)c1-c1ccccc1F [(77)]       rule met
8  COCCN(C)Cc1cnn(-c2ccc(-c3cc(F)ccc3F)nc2)c1-c1ccccc1F [(159)]   rule not met

Item CCOC(=O)CNCc1cnn(-c2ccc(-c3ccccc3F)nc2)c1-c1ccccc1F [(148)] with pIC50 of 7 or above?
rule not met

API: above_or_equal(metric=pIC50, cutoff=7) for item Fc1ccccc1-c1c(CCl)cnn1-c1ccc(-c2ccccc2)cc1 [(189)]
rule not met

Kindly determine if pIC50 recorded for OCc1cnn(-c2ccc(-c3ccc(F)cc3)nc2)c1-c1ccccc1F [(119)] is above or exactly 7.
rule not met

Record Fc1ccc(-c2ccc(-n3ncc(CNc4ccon4)c3-c3ccccc3F)cn2)cc1 [(174)] ; criterion: pIC50 no lower than 7. Met?
rule not met

Please check the record Nc1ccc(NCc2cnn(-c3ccc(-c4ccc(F)cc4)nc3)c2-c2ccccc2F)cn1 [(194)] and state if its pIC50 is at or above 7.
rule not met

====

# systemUnderTest: 5-HT2A receptors (Rattus norvegicus)
# assay: in-vitro affinity to 5-HT2A receptors, displacement of [3H]ketanserine (Example A1)
# Assay type: binding
# conditionDescription: target not given; description names affinity to 5-HT2A receptors; read-out: IC50
Measured pIC50 of individual entries
pIC50 field: float, defined as -log10 of concentration (mol/L).

Here's what some known entries look like.
> print(dat)
                                   compound                       systemundertest  value
1  Fc1ccccc1-c1c(CNc2ccon2)cnn1-c1ccc(-c2ccccc2)cc1  5-HT2A receptors (Rattus norvegicus)   6.62
2  O=C1CCCN1CCCNCc1cnn(-c2ccc(-c3ccccc3)cc2)c1-c1ccccc1F  5-HT2A receptors (Rattus norvegicus)   7.19
3  CCOC(=O)CN1CCN(Cc2cnn(-c3ccc(-c4ccccc4)cc3)c2-c2ccccc2F)CC1  5-HT2A receptors (Rattus norvegicus)   6.16
4  Fc1ccccc1-c1c(CNc2cnccn2)cnn1-c1ccc(-c2ccccc2)cc1  5-HT2A receptors (Rattus norvegicus)   5.64

Look up pIC50: "Fc1ccccc1-c1c(CN2CCNCC2)cnn1-c1ccc(-c2ccccc2)nc1"
6.82
